log10 microsomal CLint at 1 µM: recorded values
Experimental Protocol: in vitro
Condition Notes: human, microsomes, pH 7.4
All values: log10 microsomal CLint at 1 µM [µL/min/mg].

* CCCCNC(=S)Nc1nc2ccccc2o1 [Molecule 12, 1-(benzo[d]oxazol-2-yl)-3-butylthiourea] | 2.34
* CCCCNC(=S)Nc1nccs1 | 1.95
* COc1ccc2c(c1)[C@]13CCCC[C@@H]1[C@H](C2)N(C)CC3 [Dextromethorphan, dextromethorphan, reference compound] | 1.29

Task: log10 microsomal CLint at 1 µM lookup needed for CCCCNC(=S)Nc1nc2ccccc2s1 [Molecule 1, 1-(benzo[d]thiazol-2-yl)-3-butylthiourea] , thanks.
Output: 1.98

Task: // repeat for CCCCNC(=S)Nc1nc(C)co1 and report
Output: 2.25

Task: // repeat for COCCCNC(=S)Nc1nc2ccccc2s1 and report
Output: 2.45

----------
Experimental Protocol: in vitro
Condition Notes: human, Caco-2, recovery
Readout Name: recovery at 1 h, 10 μM (%)
# value in %; strip the unit string

Task: recovery at 1 h, 10 μM lookup needed for CCCCNC(=S)Nc1nccs1 , thanks.
Output: 57

Task: // repeat for CCCCNC(=S)Nc1nc(C)co1 and report
Output: 59

----------
Experimental Protocol: Microsomal metabolic stability
Condition Notes: human, liver microsomes, pH 7.4
Readout Name: half-life at 1 µM
Please don't drop the unit; write it after the number.

The examples below pair each entry with its known result.
* CCCCNC(=S)Nc1nc(C)co1 | 13 min
* COCCCNC(=S)Nc1nc2ccccc2s1 | 8.2 min
* CCCCNC(=S)Nc1nccs1 | 26 min
* CCCCNC(=S)Nc1nc2ccccc2o1 [Molecule 12, 1-(benzo[d]oxazol-2-yl)-3-butylthiourea] | 11 min

Here is the next item to consider.
Task: half-life at 1 µM lookup needed for CCCCNC(=S)Nc1nc2ccccc2s1 [Molecule 1, 1-(benzo[d]thiazol-2-yl)-3-butylthiourea] , thanks.
Output: 24 min

----------
Tested on: Caco-2 cells
Experimental Protocol: Caco-2 permeability
Condition Notes: A→B; assay duration 2 hr
dQ/dt (rate of permeation), mean: recorded values
Enter the number alone.

The examples below pair each entry with its known result.
- CCCCNC(=S)Nc1nc(C)co1: 3.0E-04
- CCCCNC(=S)Nc1nc2ccccc2s1 [Molecule 1, 1-(benzo[d]thiazol-2-yl)-3-butylthiourea]: 2.1E-05
- CCCCNC(=S)Nc1nc2ccccc2o1 [Molecule 12, 1-(benzo[d]oxazol-2-yl)-3-butylthiourea]: 3.2E-05
- COCCCNC(=S)Nc1nc2ccccc2s1: 8.8E-05

Task: Requested read-out dQ/dt (rate of permeation), mean, target or system Caco-2 cells, entry CCCCNC(=S)Nc1nccs1
Output: 1.5E-04

----------
Experimental Protocol: in vitro
Condition Notes: human, Caco-2
# binarize efflux ratio at 2 h, 10 µM: threshold 0.9 inclusive, high side satisfied, low side not satisfied

* CCCCNC(=S)Nc1nc2ccccc2o1 [Molecule 12, 1-(benzo[d]oxazol-2-yl)-3-butylthiourea] | satisfied
* CCCCNC(=S)Nc1nccs1 | not satisfied
* CCCCNC(=S)Nc1nc2ccccc2s1 [Molecule 1, 1-(benzo[d]thiazol-2-yl)-3-butylthiourea] | satisfied

Here's the next entry for you.
Task: API: above_or_equal(metric=efflux ratio at 2 h, 10 µM, cutoff=0.9) for item COCCCNC(=S)Nc1nc2ccccc2s1
Output: not satisfied
